# measurement_description: Quantitative High-Throughput drug screen in 47 multiple myeloma cell lines against the NCATS MIPE library collection: INA6_PLB cell viability assay (AID 1918965; also: potency is read from the fitted curve at half-maximal effect; nearly all actives have a fitted effect of over 55% in size)
# recorded_conditions: INA6 myeloma viability, CellTiter-Glo ATP luminescence, 48 h; series mostly up to 45.8 µM
Results filed as inconclusive are left out. Activity calls are given as the source filed them. Calls follow the shape of the dose curve; as a rule, active = well fitted cell-killing curve with a large enough effect; inconclusive = small, poorly fitted or top-dose-only effect, or effect the other way; inactive = no such curve, though single readings can be large or run the other way.
The reply should name one outcome from True (active), False (inactive)

Query: I'd appreciate the recorded outcome for `CN1CC[C@@H](c2c(O)cc(O)c3c(=O)cc(-c4ccccc4Cl)oc23)[C@@H](O)C1` from this test.
Reply: True

---

# measurement_description: P-glycoprotein substrates identified in KB-3-1 adenocarcinoma cell line, qHTS therapeutic library screen (AID 1346986); also: nearly all actives have a fitted effect of over 60% in size;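 also: potency is read from the fitted curve at half-maximal effect; potency is for cytotoxicity meaning loss of cell viability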
# recorded_conditions: KB-3-1 parental cells viability, CellTiter-Glo, 72 h; series mostly up to 44.5 µM
Results filed as inconclusive are left out. The source made the active and inactive calls. Calls come from the whole dose curve; as a rule, active = well fitted inhibition curve with a large enough effect; inconclusive = small, poorly fitted or top-dose-only effect; inactive = no such curve, though single readings can be large or run the other way.
measured_attribute: Potency

# count of solved cases: 5
Query: Which Potency is reported for this compound? CN(C1CCc2c(c3ccccc3n2CC(=O)O)C1)S(=O)(=O)c1ccc(F)cc1 (stereo unspecified)
Reply: inactive

Query: Consider next the compound `CCN1CCN(CC(=O)Nc2ccc(-c3cccc4c(=O)cc(N5CCOCC5)oc34)c3sc4ccccc4c23)CC1` in the same way.
Reply: 1.88 µM (active)

Query: Consider next the compound `O=C(c1ccc(Nc2nccc(-c3cc4ccccc4s3)n2)cc1)N1CCC(N2CCCC2)CC1` in the same way.
Reply: 6.51 µM (active)

Query: Consider next the compound `CCN(CC)CCCCNc1ncc2cc(-c3cc(OC)cc(OC)c3)c(NC(=O)NC(C)(C)C)nc2n1` in the same way.
Reply: 23.1 µM (active)

Query: Consider next the compound `CS(=O)(=O)c1ccc(-c2cnc(N)c(C(=O)Nc3ccccc3)n2)cc1` in the same way.
Reply: inactive

Now, please, on to the next compound.
Query: Which Potency is reported for this compound? `COC(=O)Nc1ccc(-c2nc(N3CCOCC3)c3cnn(C4CCN(Cc5cccnc5)CC4)c3n2)cc1`
Reply: 1.03 µM (active)
